# TARGET DESC: Phospholipase A2, membrane associated (Homo sapiens)
# PROCEDURE DETAILS: Inhibitory activity against human synovial fluid phospholipase A2 (HSF-PLA2).
# Set-up: concentration or dose not given beside the values
# MEASUREMENT PARAMETERS: concentration not given here
MEASURED QUANTITY: inhibition (%)

Example cases with answers are listed next.
MOLECULE	TARGET DESC	UNIT SPEC	inhibition
CCCCCCCCCCCC(=O)NC(CCCCCC)COP(=O)(O)OCCO (stereo not given)	Phospholipase A2, membrane associated (Homo sapiens)	%	65
CCCCCCCCCCS(=O)(=O)N[C@@H](CCCCCC)COP(=O)(O)OCCO	Phospholipase A2, membrane associated (Homo sapiens)	%	40
CCCCCCCCCCS(=O)(=O)NC(CCCCCC)COP(=O)(O)OCCO (stereo not given)	Phospholipase A2, membrane associated (Homo sapiens)	%	36
CCCCCCCCCCS(=O)(=O)N[C@H](CCCCCC)COP(=O)(O)OCCO (stereo in doubt; form 2)	Phospholipase A2, membrane associated (Homo sapiens)	%	45
CCCCCCCCCCS(=O)(=O)N[C@H](CCCCCC)COP(=O)(O)OCCO (stereo in doubt; form 1)	Phospholipase A2, membrane associated (Homo sapiens)	%	44

(A) CCCCCCCCCCS(=O)(=O)N[C@H](CCCCCC)COP(=O)(O)OCCOCc1ccccc1
(B) CCCCCCCCCCS(=O)(=O)CC(CCCCCC)COP(=O)(O)OCCO (stereo not given)
Lookup: Higher inhibition: A or B ? // respond with label for picked entry
Found: A

(I) CCCCCCCCCCS(=O)(=O)NC(CCCCCC)COCC(F)(F)F (stereo not given)
(II) CCCCCCCCCCC(=O)NC(CCCCCC)COP(=O)(O)OCCNCc1ccccc1 (stereo not given)
Lookup: Among I and II , whose measured inhibition is the smaller figure? // respond with label for picked entry
Found: I
(I: 0%, II: 28%)
